Reported pEC50 values for a set of compounds
# Target System: RIP1 (Homo sapiens)
# Sequence (Q13546 1-671): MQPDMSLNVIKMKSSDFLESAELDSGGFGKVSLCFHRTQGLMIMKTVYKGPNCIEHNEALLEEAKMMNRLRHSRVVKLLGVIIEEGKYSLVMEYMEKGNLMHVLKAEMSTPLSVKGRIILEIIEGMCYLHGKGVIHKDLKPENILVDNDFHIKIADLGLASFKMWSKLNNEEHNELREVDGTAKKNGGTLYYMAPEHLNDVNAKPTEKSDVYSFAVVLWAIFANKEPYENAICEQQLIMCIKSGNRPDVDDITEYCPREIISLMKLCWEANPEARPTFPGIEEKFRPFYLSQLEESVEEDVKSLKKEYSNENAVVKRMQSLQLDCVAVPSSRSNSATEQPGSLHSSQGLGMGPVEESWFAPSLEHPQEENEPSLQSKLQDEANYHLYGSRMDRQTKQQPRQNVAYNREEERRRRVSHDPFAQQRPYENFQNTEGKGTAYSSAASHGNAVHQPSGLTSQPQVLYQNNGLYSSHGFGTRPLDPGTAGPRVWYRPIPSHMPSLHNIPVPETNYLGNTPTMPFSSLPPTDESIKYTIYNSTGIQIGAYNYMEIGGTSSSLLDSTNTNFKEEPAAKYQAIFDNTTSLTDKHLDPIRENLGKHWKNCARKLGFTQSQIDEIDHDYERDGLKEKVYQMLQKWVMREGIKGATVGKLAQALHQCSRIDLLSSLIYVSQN
# Experiment Summary: Cellular RIP1 inhibitory activity: HT-29 necroptosis (TNFα/SMAC mimetic/zVAD-FMK) CellTiter-Glo viability assay
# Condition Notes: HT-29 cells, TNF-α 10 ng/ml + SMAC mimetic 6 μM + zVAD-FMK 10 μM, 20 hours, geometric mean, read-out: EC50 Values of in vitro Cellular RIP1 Inhibitory Activity
pEC50: −log10 of the molar value.

Known pEC50 results, listed for orientation:
[
  {
    "Compound": "Cn1ncnc1-c1nc(N2CCC(C(=O)NCc3cc(F)cc(F)c3F)CC2)ncc1F",
    "Result Type": "pEC50",
    "Result Value": "7.00 to 10.00"
  },
  {
    "Compound": "Cc1cnn(C)c1-c1nc(N2CCC(C(=O)N(C)Cc3cc(F)cc(F)c3)CC2)ncc1F",
    "Result Type": "pEC50",
    "Result Value": "7.00 to 10.00"
  }
]

Kindly consider the entry below.
Req: Lab request: please report pEC50 under test system RIP1 (Homo sapiens) for Cc1ncc(CNC(=O)C2CCN(c3ncc(F)c(-c4c(C)cnn4C)n3)CC2)s1
Resp: 6.00 to 7.00

====

Reported EC50 values for a set of compounds
# Target System: RIP1 (Homo sapiens, UniProt Q13546)
# Sequence (Q13546 1-671): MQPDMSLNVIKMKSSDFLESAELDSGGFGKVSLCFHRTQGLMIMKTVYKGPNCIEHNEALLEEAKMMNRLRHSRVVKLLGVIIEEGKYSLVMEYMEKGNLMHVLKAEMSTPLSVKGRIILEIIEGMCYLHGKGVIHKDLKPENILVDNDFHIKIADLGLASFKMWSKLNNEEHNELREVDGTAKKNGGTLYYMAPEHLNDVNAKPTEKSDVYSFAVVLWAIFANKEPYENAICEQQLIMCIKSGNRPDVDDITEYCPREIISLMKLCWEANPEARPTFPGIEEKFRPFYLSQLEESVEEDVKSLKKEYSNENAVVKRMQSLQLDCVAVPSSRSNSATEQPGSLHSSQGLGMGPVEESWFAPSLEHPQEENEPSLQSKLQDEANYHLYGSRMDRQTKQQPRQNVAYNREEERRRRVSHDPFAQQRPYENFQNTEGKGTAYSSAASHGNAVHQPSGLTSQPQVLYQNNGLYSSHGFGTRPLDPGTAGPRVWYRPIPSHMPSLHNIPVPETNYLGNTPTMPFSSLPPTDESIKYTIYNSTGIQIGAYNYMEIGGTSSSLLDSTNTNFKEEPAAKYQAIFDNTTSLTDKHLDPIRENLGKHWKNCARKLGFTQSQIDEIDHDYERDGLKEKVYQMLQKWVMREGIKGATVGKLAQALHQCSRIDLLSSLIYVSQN
# Experiment Summary: Cellular RIP1 inhibitory activity: HT-29 necroptosis (TNFα/SMAC mimetic/zVAD-FMK) CellTiter-Glo viability assay
# Condition Notes: HT-29 cells, TNF-α 10 ng/ml + SMAC mimetic 6 μM + zVAD-FMK 10 μM, 20 hours, geometric mean, read-out: EC50 Values of in vitro Cellular RIP1 Inhibitory Activity

Known EC50 results, listed for orientation:
[
  {
    "Compound": "Cc1cnn(C)c1-c1cc(OC2CC(C(=O)N(O)Cc3cc(F)cc(F)c3)C2)c(F)cn1 (centres unmarked)",
    "EC50": "0.0001 to 0.1 µM"
  },
  {
    "Compound": "Cn1ncnc1-c1nc(N2CCC(F)(C(=O)N(O)Cc3cc(F)cc(F)c3)CC2)ncc1F",
    "EC50": "0.0001 to 0.1 µM"
  },
  {
    "Compound": "CCN(Cc1cnn(C)c1)C(=O)C1CCN(c2ncc(F)c(-c3c(C)cnn3C)n2)CC1",
    "EC50": "0.1 to 1 µM"
  }
]

Kindly consider the entry below.
Req: Need EC50 of Cc1nnc(CN(C)C(=O)C2CCN(c3ncc(F)c(-c4c(C)cnn4C)n3)CC2)s1 , thanks.
Resp: 0.1 to 1 µM

====

# Target System: RIP1 (Homo sapiens, UniProt Q13546)
# Sequence (Q13546 1-671): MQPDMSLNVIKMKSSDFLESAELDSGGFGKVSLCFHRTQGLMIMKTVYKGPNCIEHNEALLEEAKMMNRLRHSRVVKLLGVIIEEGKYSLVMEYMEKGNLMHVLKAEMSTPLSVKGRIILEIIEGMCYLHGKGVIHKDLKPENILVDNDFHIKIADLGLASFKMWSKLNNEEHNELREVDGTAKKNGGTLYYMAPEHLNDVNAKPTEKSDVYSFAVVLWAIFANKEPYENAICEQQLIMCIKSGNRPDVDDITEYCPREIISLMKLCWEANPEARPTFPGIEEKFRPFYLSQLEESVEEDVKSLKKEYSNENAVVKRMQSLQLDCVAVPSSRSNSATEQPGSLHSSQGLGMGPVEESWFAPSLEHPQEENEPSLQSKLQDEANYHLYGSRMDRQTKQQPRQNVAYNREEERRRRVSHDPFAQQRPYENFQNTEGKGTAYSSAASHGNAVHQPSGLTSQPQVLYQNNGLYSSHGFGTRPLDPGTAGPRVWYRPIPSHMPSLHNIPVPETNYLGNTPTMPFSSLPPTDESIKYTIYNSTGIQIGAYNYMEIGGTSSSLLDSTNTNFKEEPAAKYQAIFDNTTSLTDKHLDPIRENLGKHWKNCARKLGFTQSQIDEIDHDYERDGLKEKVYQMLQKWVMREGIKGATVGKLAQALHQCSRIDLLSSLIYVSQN
# Experiment Summary: Cellular RIP1 inhibitory activity: HT-29 necroptosis (TNFα/SMAC mimetic/zVAD-FMK) CellTiter-Glo viability assay
# Condition Notes: HT-29 cells, TNF-α 10 ng/ml + SMAC mimetic 6 μM + zVAD-FMK 10 μM, 20 hours, geometric mean, read-out: EC50 Values of in vitro Cellular RIP1 Inhibitory Activity
# Method: Compounds 1-99 (denoted as Cmpd Nos. 1 through 99 in Table 2 below) of the disclosure were tested for binding and cellular RIP1 inhibitory activity following the experimental procedures described below. Cell Seeding • 1. HT-29 cells were checked every day to make sure that they were healthy and growing as expected. […] The luminescence signals were read and recorded with EnVision. • 8. The geometric mean EC50 values were calculated from 10 points response dose with duplicates. […]
pEC50: −log10 of the molar value.
Reported pEC50 values for a set of molecules

Known pEC50 results, listed for orientation:
[
  {
    "Compound": "Cc1nc(C)n(-c2nc(N3CCC(C(=O)N(C)Cc4cc(F)cc(F)c4F)CC3)ncc2F)n1",
    "Result Value": "7.00 to 10.00"
  },
  {
    "Compound": "Cc1cnn(C)c1-c1ncc(F)c(N2CCC(C(=O)N(O)Cc3cc(F)cc(F)c3)CC2)n1",
    "Result Value": "7.00 to 10.00"
  },
  {
    "Compound": "Cc1cnn(C)c1-c1nc(N2CCC(C(=O)N(O)Cc3nccn3C)CC2)ncc1F",
    "Result Value": "5.00 to 6.00"
  }
]

Req: Need pEC50 of Cc1cnn(C)c1-c1nc(N2CCC(C(=O)N(O)Cc3cccnc3)CC2)ncc1F , thanks.
Resp: 7.00 to 10.00

Req: Need pEC50 of CCN(Cc1cncs1)C(=O)C1CCN(c2ncc(F)c(-c3c(C)cnn3C)n2)CC1 , thanks.
Resp: 7.00 to 10.00

====

Reported EC50 values for a set of compounds
# Target System: RIP1 (Homo sapiens, UniProt Q13546)
# Experiment Summary: Cellular RIP1 inhibitory activity: HT-29 necroptosis (TNFα/SMAC mimetic/zVAD-FMK) CellTiter-Glo viability assay
# Condition Notes: HT-29 cells, TNF-α 10 ng/ml + SMAC mimetic 6 μM + zVAD-FMK 10 μM, 20 hours, geometric mean, read-out: EC50 Values of in vitro Cellular RIP1 Inhibitory Activity

[
  {
    "Compound": "Cc1cnn(C)c1-c1nc(N2CCC(C(=O)NCc3cc(C)n(C)n3)CC2)ncc1F [Compound 43]",
    "EC50": "1000 to 10000 nM"
  }
]

Req: Need EC50 of Cc1cnn(C)c1-c1nc(N2CCC(C(=O)NCc3cc(F)cc(F)c3F)CC2)ncc1F [Compound 6] , thanks.
Resp: 0.1 to 100 nM

Req: Need EC50 of Cc1nc(C)c(CN(C)C(=O)C2CCN(c3ncc(F)c(-c4c(C)cnn4C)n3)CC2)s1 [Compound 69] , thanks.
Resp: 100 to 1000 nM

Req: Need EC50 of Cc1cnn(C)c1-c1nc(N2CCC(C(=O)N(O)Cc3ccccn3)CC2)ncc1F [Compound 31] , thanks.
Resp: 0.1 to 100 nM

Req: Need EC50 of Cc1cnn(C)c1-c1nc(N2CCC(C(=O)N(O)Cc3cnco3)CC2)ncc1F [Compound 23] , thanks.
Resp: 0.1 to 100 nM

Data origin: patent US20240217963A1
